property: melting point

Solved cases (6 shown):
- query smiles: "Nc1ccc(C(=O)O)cc1O"
  melting point: "211 to 215 °C"
- query smiles: "Oc1ccc2cc[nH]c2c1"
  melting point: "124 to 130 °C"
- query smiles: "CCc1nc2ccccc2[nH]1"
  melting point: "175 °C"
- query smiles: "CNCc1ccc(-c2cncnc2)cc1"
  melting point: "45 to 46 °C"
- query smiles: "OCc1ccc(N2CCOCC2)cc1"
  melting point: "96 to 98 °C"
- query smiles: "Cc1nn2c(-c3ccccc3)nnc2s1"
  melting point: "192 to 194 °C"

// below: melting point requested for another molecule
Hello, please tell me recorded melting point for this one: "Cc1nn(-c2ccccc2)nc1C(=O)N1CCCC1"
89 to 90 °C
